Assay: Loading of griseofulvin into QCPAA aggregates (solubilisation)
Format: physicochemical
Conditions: thermodynamic from solid; excess drug sonicated in distilled water, filtered; read-out: intrinsic (aqueous) solubility of griseofulvin
Procedure: Drug loading was then achieved by probe sonication of the drugs in the presence of polymer aggregates in distilled water. Polymer, drug solutions with varying polymer: drug weight ratios were prepared. […] The aqueous solubility of griseofulvin was determined by sonicating excess drugs in distilled water. The solution was then filtered and analysed as described earlier. A griseofulvin calibration curve was prepared using various standard solutions (1-30 μgml^−1, R^2=0.993).
recorded endpoint: solubility (µg/mL)
Response body: numeric value in µg/mL, unit text excluded.

Sample COC1=CC(=O)C[C@@H](C)[C@]12Oc1c(Cl)c(OC)cc(OC)c1C2=O — what was its solubility?
48.3

----------
assay: Loading of propofol into QCPAA or CePAA (solubilisation)
recorded endpoint: solubility (µg/mL)
Response body: numeric value in µg/mL, unit text excluded.

Sample CC(C)c1cccc(C(C)C)c1O — what was its solubility?
112
